These measurements were taken from ChEMBL document CHEMBL1201862.

# Tested on: 786-0
# Protocol Details: NCI tumour cell line growth inhibition, 48 h
Activity calls are given as the source filed them. Rule as the data show it: active = GI50 up to about 1.1 µM and inactive = higher.
Quick reference for GI50 among some compounds
Measured Quantity: GI50

[[record]]
compound = "N=C(N)N/N=C/c1c(-c2ccc(Cl)cc2)nc2sccn12"
meas_value = "1.61 µM (inactive)"

[[record]]
compound = "CNC1C(=O)C(C)C(O)(C(CC(C)C(O)/C=C/C=C/CNC(=O)C(C)(C)C(O)\\C(C)=C/C=C\\C=C\\Cc2cnc(C)o2)OC)C12C(=O)OC2C.CNC1C(=O)C(C)C(O)(C(CC(C)C(O)/C=C/C=C/CNC(=O)C(C)(C)C(O)\\C(C)=C/C=C\\C=C\\Cc2cnc(C)o2)OC)C12C(=O)OC2COC (centres undefined)"
meas_value = "18.5 µM (inactive)"

[[record]]
compound = "COC(=O)CCC1CCc2c(OC)ccc(OC)c2C1=O (centres undefined)"
meas_value = "> 100 µM (inactive)"

[[record]]
compound = "CSC1=N/C(=C\\c2ccco2)C(=O)N1CN1CCOCC1"
meas_value = "48.6 µM (inactive)"

[[record]]
compound = "O=C(/C=C/c1ccccc1)Oc1ccc(C(=O)/C=C/c2ccc(Cl)cc2)cc1"
meas_value = "31.9 µM (inactive)"

[[record]]
compound = "O=C(Nc1nnc(-c2ccc(Cl)cc2)o1)C(SC(=S)N1CCCCC1)c1ccccc1 (centres undefined)"
meas_value = "14.8 µM (inactive)"

[[record]]
compound = "CC1(C)/C(=N\\NC(N)=O)C2CCC1C2 (centres undefined)"
meas_value = "> 100 µM (inactive)"

[[record]]
compound = "CSc1ncnc2c1cnn2Cc1cn(CCCCO)nn1"
meas_value = "> 100 µM (inactive)"

[[record]]
compound = "COc1cc2c(cc1OC)C1=Cc3cc(OC)c(OC)cc3C(C)N1C=C2 (centres undefined)"
meas_value = "> 100 µM (inactive)"

